All figures here come from patent US20120245346A1.

Assay: Solubility in water (Test Example 1, Stage 1)
Format: physicochemical
Settings: ratio of dissolved sample to water; Stage 1
Where a name gives a salt, the structure may show the parent alone.

{"molecule": "CCc1cc(OC)cc2nc(-c3cccnc3N3CC[C@H](N(C)C)C3)oc(=O)c12 [DIHYDROCHLORIDE]", "SOLUBILITY": "∘"}
{"molecule": "CCc1cc(OC)cc2nc(-c3cccnc3N3CC[C@H](N(C)C)C3)oc(=O)c12.Cl.O [MONOHYDROCHLORIDE]", "SOLUBILITY": "∘"}
{"molecule": "CCc1cc(OC)cc2nc(-c3cccnc3N3CC[C@H](N(C)C)C3)oc(=O)c12 [½D-TARTARIC ACID]", "SOLUBILITY": "∘"}
